Reported inhibition values for a set of molecules
- tgt: Nuclear receptor ROR-alpha (Homo sapiens) (UniProt P35398)
- Sequence (P35398 whole entry, looked up): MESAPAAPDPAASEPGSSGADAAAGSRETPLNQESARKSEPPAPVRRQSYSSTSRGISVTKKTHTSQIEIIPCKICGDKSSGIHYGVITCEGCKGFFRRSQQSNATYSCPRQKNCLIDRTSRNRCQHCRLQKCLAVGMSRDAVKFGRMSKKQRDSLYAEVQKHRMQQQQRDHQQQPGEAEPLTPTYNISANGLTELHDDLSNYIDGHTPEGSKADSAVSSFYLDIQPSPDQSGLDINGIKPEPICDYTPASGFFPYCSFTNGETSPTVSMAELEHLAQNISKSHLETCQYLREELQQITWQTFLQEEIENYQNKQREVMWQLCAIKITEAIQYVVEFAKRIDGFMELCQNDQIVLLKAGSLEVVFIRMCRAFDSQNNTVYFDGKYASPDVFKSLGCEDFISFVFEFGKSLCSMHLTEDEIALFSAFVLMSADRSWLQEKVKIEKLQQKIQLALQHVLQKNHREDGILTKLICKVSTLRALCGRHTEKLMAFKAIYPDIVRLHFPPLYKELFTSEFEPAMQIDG
- procedure-summary: suppression of basal RORA-driven reporter transcription – cell-based, luminescence, primary screen (AID 561);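 also: 0% = RORA-transfected cells with DMSO and 100% = mock-transfected cells lacking RORA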
- condition-info: CHO-K1 Gal4-RORA LBD luciferase reporter, at 10 µM, hits give high values
Out of some 65,000 compounds screened, about 280 (0.43%) were called active. Shown is part of a subset that was picked to be rich in actives.
Write it as a number; the unit % goes unstated.

CCOC(=O)Cc1c(C)nc2c(C#N)c(C)nn2c1C	-2.8
Cc1ccc(S(=O)(=O)Nc2ccc3ncccc3c2)cc1	56.7

Value of measured inhibition for the entry Cn1c(=O)c2c(nc(N3CCCCCC3)n2CC(O)COc2ccc(Cl)cc2)n(C)c1=O (configuration not stated) : -1

Value of measured inhibition for the entry CCOc1cccc(-c2nn3c(-c4ccccn4)nnc3s2)c1 : -0.6

Value of measured inhibition for the entry CC(=O)NC(Cc1ccc(F)cc1)C(=O)O (configuration not stated) : 4.4

Value of measured inhibition for the entry CC1CCC(NC(=O)c2ccc(N3CCCC3=O)cc2)CC1 (configuration not stated) : -61.7

Value of measured inhibition for the entry O=C(NCc1ccc2c(c1)OCO2)c1ccc2c(c1)C(=O)N(CC1CCCO1)C2=O (configuration not stated) : 4.9

Value of measured inhibition for the entry COCn1c(COc2ccccc2)nc2ccccc21 : -53.4

Value of measured inhibition for the entry CCCCc1nc2ccccc2c(NC(=O)CN2CCN(C)CC2)c1CCC : -1.9

Value of measured inhibition for the entry CCOc1cc(C(=S)N2CCOCC2)ccc1O : 8.5

Value of measured inhibition for the entry CCOC(=O)/C=c1\s/c(=C\c2ccccc2OC)c(=O)n1CC(=O)N1CCOCC1 : 3.7

Value of measured inhibition for the entry COc1ccc(OC)c(NC(=O)Cn2c(=O)oc3ccccc32)c1 : -7.4

Value of measured inhibition for the entry Oc1ccc(Cl)cc1/C=N/c1nc2ccccc2[nH]1 : -51.7

Value of measured inhibition for the entry O=C(CCSc1ccccc1)NCCSc1ccccn1 : -13.3

Value of measured inhibition for the entry CC[C@]1(O)CC2CN(CCc3c([nH]c4ccccc34)[C@@](C(=O)OC)(c3cc4c(cc3OC)N(C=O)[C@H]3[C@@](O)(C(=O)OC)[C@H](OC(C)=O)[C@]5(CC)C=CCN6CC[C@]43[C@@H]65)C2)C1 (some centres not stated) : 54

Value of measured inhibition for the entry Cc1cccc(OCc2nnc(SCc3nc4cc(C(F)(F)F)ccc4c(=O)[nH]3)o2)c1 : 16.5

Value of measured inhibition for the entry Cc1cc(Cl)c(S(=O)(=O)Nc2ccc3c(c2)OCCO3)cc1OCC(N)=O : 22.5

Value of measured inhibition for the entry COc1ccc(C(=O)CSc2nnc(COc3ccccc3)n2Cc2ccco2)cc1 : -7.7

Value of measured inhibition for the entry COc1ccccc1CNC(=O)C1CCN(c2nc3ccccc3o2)CC1 : 14

Value of measured inhibition for the entry CNC(=O)CN1C(=O)c2ccccc2S1(=O)=O : -15

Value of measured inhibition for the entry CS(=O)(=O)c1ccc2nc(NC(=O)C3C4C=CC(C4)C3C(=O)O)sc2c1 (configuration not stated) : 0.6

Value of measured inhibition for the entry O=C(CC1NCCNC1=O)Nc1ccc(Oc2ccccc2)cc1 (configuration not stated) : -7.9

Data origin, for the record: PubChem BioAssay AID561
